Could you please report measured drug sensitivity score for the items listed next?
Tested on: CAF#4 (primary prostate cancer-associated fibroblasts of iCAF-like type)
test protocol: drug sensitivity score (DSS2, normalised partial AUC of dose-response, 72 h CellTiter-Glo viability) (DSS (dimensionless)); higher = more sensitive (stronger growth inhibition / cytotoxicity); extreme values may be limits of the assay
Please reply with the value in numeric form only.

INPUT: Give the measured drug sensitivity score of Cc1c(Cn2c(C)nc3c(C(=O)O)cc(N4CCOCC4)cc32)cccc1C(F)(F)F (tested concentration range 1-10000 nM) .
OUTPUT: 1.3

INPUT: So what's the measured drug sensitivity score for this one? O=C(c1cc(Cc2n[nH]c(=O)c3ccccc23)ccc1F)N1CCN(C(=O)C2CC2)CC1 [Olaparib] (tested concentration range 1-10000 nM)
OUTPUT: 6.8

INPUT: Bench note: what drug sensitivity score did CC#CC(=O)N1CCC[C@H]1c1nc(-c2ccc(C(=O)Nc3ccccn3)cc2)c2c(N)nccn12 [Acalabrutinib] (tested concentration range 0.1-1000 nM) show?
OUTPUT: 0

INPUT: If you can, please state the reported drug sensitivity score value of C[C@@H]1CCN(C(=O)CC#N)C[C@@H]1N(C)c1ncnc2[nH]ccc12 [Tofacitinib] (tested concentration range 0.5-5000 nM) .
OUTPUT: 0

INPUT: Consider the compound COC(=O)N[C@@H](C)CNc1nccc(-c2cn(C(C)C)nc2-c2cc(Cl)cc(NS(C)(=O)=O)c2F)n1 [Encorafenib] (tested concentration range 0.1-1000 nM) and give its measured drug sensitivity score.
OUTPUT: 0.5
